- TEST NAME: Oral bioavailability in Sprague-Dawley rat at 30 mg/kg measured during 1 to 24 hrs by LC-MS method
- Type: ADME, organism-based
- CONDITION NOTES: in vivo
QUANTITY: bioavailability

Entry [2H]C([2H])([2H])C([2H])([2H])c1cc(OC(F)(F)F)cc2c1OC(C(F)(F)F)C(C(=O)O)=C2 (stereo unspecified) has what bioavailability?
60.2%

----------
- TEST NAME: Half life in Sprague-Dawley rat at 30 mg/kg, po measured during 1 to 24 hrs by LC-MS method
- Type: ADME, organism-based
- Parameters: dose 30 mg/kg, route oral
- CONDITION NOTES: in vivo
QUANTITY: half-life (h)
Answers are plain numbers, in h.

Entry [2H]C([2H])([2H])C([2H])([2H])c1cc(OC(F)(F)F)cc2c1OC(C(F)(F)F)C(C(=O)O)=C2 (stereo unspecified) has what half-life?
4.54

----------
- TEST NAME: Apparent oral clearance in Sprague-Dawley rat at 25 mg/kg, po measured during 1 to 24 hrs by LC-MS method
- Assay type: ADME, organism-based
- Parameters: dose 25 mg/kg, route oral
- CONDITION NOTES: in vivo
QUANTITY: CL/F (mL/min/kg)
Give bare numbers, in mL/min/kg.

Entry CCc1cc(OC(F)(F)F)cc2c1OC(C(F)(F)F)C(C(=O)O)=C2 (stereo unspecified) has what CL/F?
0.817

----------
- TEST NAME: AUC (0 to infinity) in Sprague-Dawley rat at 25 mg/kg, po measured during 1 to 24 hrs by LC-MS method
- Type: ADME, organism-based
- Parameters: time infinity, dose 25 mg/kg, route oral
- CONDITION NOTES: plasma
QUANTITY: AUC(0-inf) (µg·h/mL)
Give bare numbers, in µg·h/mL.

Entry CCc1cc(OC(F)(F)F)cc2c1OC(C(F)(F)F)C(C(=O)O)=C2 (stereo unspecified) has what AUC(0-inf)?
511

----------
- TEST NAME: AUC (0 to infinity) in Sprague-Dawley rat at 10 mg/kg, po measured during 1 to 24 hrs by LC-MS method
- Format: ADME, organism-based, Plasma
- Parameters: time infinity, dose 10 mg/kg, route oral
- CONDITION NOTES: Sprague-Dawley, plasma
Please go through the items and note down their AUC(0-inf).

CC(C)(C)c1cc2c(cc1Cl)C=C(C(=O)O)[C@@H](C(F)(F)F)O2 : 42200 ng·h/mL

Consider the additional compound presented here.
Entry [2H]C([2H])([2H])c1cc2c(c(C([2H])([2H])[2H])c1Br)C=C(C(=O)O)C(C(F)(F)F)O2 (configuration not stated) has what AUC(0-inf)?
84800 ng·h/mL

----------
- TEST NAME: Cmax in Sprague-Dawley rat at 5 mg/kg, iv measured during 1 to 24 hrs by LC-MS method
- Assay type: ADME, organism-based
- Set-up: dose 5 mg/kg, route intravenous
- CONDITION NOTES: in vivo
QUANTITY: Cmax

Use the examples below as a reference point.
CC(C)(C)c1cc2c(cc1Cl)C=C(C(=O)O)[C@@H](C(F)(F)F)O2 [TIGEMOCOXIB] : 37200 ng/mL
[2H]C([2H])([2H])c1cc(Br)cc2c1OC(C(F)(F)F)C(C(=O)O)=C2 (stereo not given) : 39000 ng/mL
[2H]C([2H])([2H])c1cc2c(c(C([2H])([2H])[2H])c1Br)C=C(C(=O)O)C(C(F)(F)F)O2 (stereo not given) : 26200 ng/mL
CCc1cc(OC(F)(F)F)cc2c1OC(C(F)(F)F)C(C(=O)O)=C2 (stereo not given) : 37200 ng/mL

Consider the additional compound presented here.
Entry [2H]C([2H])([2H])c1cc2c(c(C([2H])([2H])[2H])c1Cl)C=C(C(=O)O)C(C(F)(F)F)O2 (stereo not given) has what Cmax?
38800 ng/mL

----------
- TEST NAME: Apparent oral clearance in Sprague-Dawley rat at 2.5 mg/kg, iv measured during 1 to 24 hrs by LC-MS method
- Format: ADME, organism-based
- Design: dose 2.5 mg/kg, route oral
- CONDITION NOTES: in vivo
QUANTITY: CL/F (mL/min/kg)
One number for each entry, in mL/min/kg.

Entry Cc1cc(Br)cc2c1OC(C(F)(F)F)C(C(=O)O)=C2 (stereo unspecified) has what CL/F?
2.87

----------
- TEST NAME: Tmax in Sprague-Dawley rat at 30 mg/kg, po measured during 1 to 24 hrs by LC-MS method
- Assay type: ADME, organism-based
- Design: dose 30 mg/kg, route oral
- CONDITION NOTES: in vivo
QUANTITY: Tmax (h)
One number for each entry, in h.

Entry [2H]C([2H])([2H])C([2H])([2H])c1cc(OC(F)(F)F)cc2c1OC(C(F)(F)F)C(C(=O)O)=C2 (stereo unspecified) has what Tmax?
1.25

----------
- TEST NAME: Oral bioavailability in Sprague-Dawley rat at 2.5 mg/kg measured during 1 to 24 hrs by LC-MS method
- Type: ADME, organism-based
- CONDITION NOTES: Sprague-Dawley, in vivo
QUANTITY: bioavailability (%)
Answers are plain numbers, in %.

Cc1cc(Cl)cc2c1OC(C(F)(F)F)C(C(=O)O)=C2 (configuration not stated) : 128

Consider the additional compound presented here.
Entry Cc1cc2c(c(C)c1Br)C=C(C(=O)O)C(C(F)(F)F)O2 (configuration not stated) has what bioavailability?
56.7

----------
- TEST NAME: AUC (0 to infinity) in Sprague-Dawley rat at 30 mg/kg, po measured during 1 to 24 hrs by LC-MS method
- Format: ADME, organism-based
- Parameters: time infinity, dose 30 mg/kg, route oral
- CONDITION NOTES: plasma
QUANTITY: AUC(0-inf) (µg·h/mL)
Answers are plain numbers, in µg·h/mL.

Entry [2H]C([2H])([2H])C([2H])([2H])c1cc(OC(F)(F)F)cc2c1OC(C(F)(F)F)C(C(=O)O)=C2 (stereo unspecified) has what AUC(0-inf)?
403

----------
- System: Rattus norvegicus
- TEST NAME: Antiinflammatory activity in orally dosed Sprague-Dawley rat model of carrageenan-induced air pouch inflammation assessed as reduction in PGE2 level by ELISA method
- Type: functional, organism-based
Please go through the items and note down their EC50.
Remember to quote the unit after the number.

Cc1cc(Cl)cc2c1OC(C(F)(F)F)C(C(=O)O)=C2 (stereo not drawn) : 0.61 mg/kg
[2H]C([2H])([2H])c1cc2c(c(C([2H])([2H])[2H])c1Br)C=C(C(=O)O)C(C(F)(F)F)O2 (stereo not drawn) : 0.57 mg/kg
Cc1cc2c(c(C)c1Cl)C=C(C(=O)O)C(C(F)(F)F)O2 (stereo not drawn) : 0.77 mg/kg
[2H]C([2H])([2H])c1cc(Cl)cc2c1OC(C(F)(F)F)C(C(=O)O)=C2 (stereo not drawn) : 0.45 mg/kg
Cc1cc(Br)cc2c1OC(C(F)(F)F)C(C(=O)O)=C2 (stereo not drawn) : 0.47 mg/kg

Okay, here is my list. What is EC50 for each of these?
1. [2H]C([2H])([2H])c1cc(Br)cc2c1OC(C(F)(F)F)C(C(=O)O)=C2 (stereo not drawn)
2. Cc1ccc(-c2cc(C(F)(F)F)nn2-c2ccc(S(N)(=O)=O)cc2)cc1 [CELECOXIB]

["0.27 mg/kg", "0.69 mg/kg"]

Entry [2H]C([2H])([2H])c1cc2c(c(C([2H])([2H])[2H])c1Cl)C=C(C(=O)O)C(C(F)(F)F)O2 (stereo not drawn) has what EC50?
0.47 mg/kg

----------
- Test system: Rattus norvegicus
- TEST NAME: Apparent oral clearance in Sprague-Dawley rat at 2.5 mg/kg, po measured during 1 to 24 hrs by LC-MS method
- Format: ADME, organism-based
- Set-up: dose 2.5 mg/kg, route oral
- CONDITION NOTES: in vivo
QUANTITY: CL/F (mL/min/kg)
Numbers only, in mL/min/kg.

Provide value of CL/F for this record tested with Rattus norvegicus: [2H]C([2H])([2H])c1cc(Cl)cc2c1OC(C(F)(F)F)C(C(=O)O)=C2 (stereo unspecified)
1.1

----------
- TEST NAME: Cmax in Sprague-Dawley rat at 25 mg/kg, po measured during 1 to 24 hrs by LC-MS method
- Format: ADME, organism-based
- Set-up: dose 25 mg/kg, route oral
- CONDITION NOTES: in vivo
QUANTITY: Cmax
Remember to quote the unit after the number.

Entry CCc1cc(OC(F)(F)F)cc2c1OC(C(F)(F)F)C(C(=O)O)=C2 (stereo unspecified) has what Cmax?
29500 ng/mL

----------
- TEST NAME: AUC (0 to infinity) in Sprague-Dawley rat at 1 mg/kg, iv measured during 1 to 24 hrs by LC-MS method
- Assay type: ADME, organism-based, Plasma
- Parameters: time infinity, dose 1 mg/kg, route intravenous
- CONDITION NOTES: Sprague-Dawley, plasma
QUANTITY: AUC(0-inf) (ng·h/mL)
Give bare numbers, in ng·h/mL.

Entry Cc1cc2c(c(C)c1Br)C=C(C(=O)O)C(C(F)(F)F)O2 (stereo unspecified) has what AUC(0-inf)?
8840

The reported measurements were obtained from ChEMBL document CHEMBL3351875.
